Test system: OCI-LY10
PROTOCOL: CTG Cell Viability Assay - OCI-LY10
Format: cell-based, human
DETAILS: Homo sapiens, OCI-Ly10, 96 h, OCI-LY10, 4 days; read-out: CTG Cell Viability Assay - OCI-LY10: Average external-IC50

| COMPOUND | IC50 |
| --- | --- |
| CN(C[C@H]1CC[C@H](n2cc(NC(=O)c3coc(-c4ccnc(NCC5CC5)c4)n3)c(C(F)F)n2)CC1)C1CCN(Cc2cccc3c2n(C)c(=O)n3C2CCC(=O)NC2=O)CC1 (some centres unmarked) | < 50 nM |
| Cn1c(=O)n(C2CCC(=O)NC2=O)c2cccc(CCCOCCC(=O)N3CCN([C@H]4CC[C@H](Nc5ncnc6ccc(C#N)cc56)CC4)CC3)c21 (some centres unmarked) | > 1000 nM |
| CC[C@@H]1[C@H](F)C(=O)N[C@@H]1COc1ncc(C#C[C@H]2CC[C@H](CN(C)C3CCN(Cc4ccc5c(c4)n(C)c(=O)n5C4CCC(=O)NC4=O)CC3)CC2)c2cc(C(N)=O)c(OC)cc12 (some centres unmarked) | > 1000 nM |
| Cn1c(=O)n(C2CCC(=O)NC2=O)c2cccc(CCCC3CCN(C[C@H]4CC[C@H](n5cc(NC(=O)c6cnn7ccc(N8C[C@H]9C[C@@H]8CO9)nc67)c(C(F)F)n5)CC4)CC3)c21 (some centres unmarked) | > 1000 nM |
| CN(Cc1ccc(OCCCNc2cccc3c2C(=O)N(C2CCC(=O)NC2=O)C3=O)nc1)C[C@H]1CC[C@H](n2cc(NC(=O)c3cnn4ccc(N5CCOCC5)nc34)c(C(F)F)n2)CC1 (some centres unmarked) | 500 to 1000 nM |
| CN(C[C@H]1CC[C@H](n2cc(NC(=O)c3cnn4ccc(NCC5CC5)nc34)c(C(C)(C)O)n2)CC1)C1CCN(Cc2cccc3c2n(C)c(=O)n3C2CCC(=O)NC2=O)CC1 (some centres unmarked) | > 1000 nM |
| Cn1c(=O)n(C2CCC(=O)NC2=O)c2cccc(CCCOCC3CCN(C[C@H]4CC[C@H](n5cc(NC(=O)c6cnn7ccc(N8CCNCC8)nc67)c(C(F)F)n5)CC4)CC3)c21 (some centres unmarked) | > 1000 nM |
| O=C1CCC(N2C(=O)c3cccc(NCC4CCN(Cc5ccc(-n6cc(NC(=O)c7cnn8ccc(N9C[C@H]%10C[C@@H]9CO%10)nc78)c(C(F)F)n6)cc5)CC4)c3C2=O)C(=O)N1 (some centres unmarked) | < 50 nM |
| Cn1c(=O)n(C2CCC(=O)NC2=O)c2cccc(CN3CC4(CCN(C[C@H]5CC[C@H](n6cc(NC(=O)c7cnn8ccc(N9CCOCC9)nc78)c(C(F)F)n6)CC5)CC4)C3)c21 (some centres unmarked) | 100 to 500 nM |
| Cn1c(=O)n(C2CCC(=O)NC2=O)c2ccc(CN3CCN(CCO[C@H]4C[C@H](N(C)C[C@H]5CC[C@H](n6cc(NC(=O)c7coc(-c8ccnc(NCC9CC9)c8)n7)c(C(F)F)n6)CC5)C4)CC3)cc21 (some centres unmarked) | 100 to 500 nM |
| CN(CC(CCCOCCCc1cccc2c1n(C)c(=O)n2C1CCC(=O)NC1=O)C(=O)O)C[C@H]1CC[C@H](n2cc(NC(=O)c3cnn4ccc(N5C[C@H]6C[C@@H]5CO6)nc34)c(C(F)F)n2)CC1 (some centres unmarked) | > 1000 nM |
| Cn1c(=O)n(C2CCC(=O)NC2=O)c2cccc(CCCOC3CCN(C[C@H]4CC[C@H](n5cc(NC(=O)c6cnn7ccc(N[C@@H]8CCCC[C@@H]8O)nc67)c(C(F)(F)F)n5)CC4)CC3)c21 (some centres unmarked) | > 1000 nM |
| O=C1CCC(N2C(=O)c3cccc(NCCOC4CCN(C[C@H]5CC[C@H](n6cc(NC(=O)c7cnn8ccc(N9CCOCC9)nc78)c(C(F)F)n6)CC5)CC4)c3C2=O)C(=O)N1 (some centres unmarked) | > 1000 nM |
| Cn1c(=O)n(C2CCC(=O)NC2=O)c2cccc(CCCOCCOCCNC[C@H]3CC[C@H](n4cc(NC(=O)c5coc(-c6ccnc(NCC(F)(F)F)c6)n5)c(C(N)=O)n4)CC3)c21 (some centres unmarked) | > 1000 nM |
| O=C1CCC(N2C(=O)c3cccc(NC4CCN(CCCNC[C@H]5CC[C@H](n6cc(NC(=O)c7cnn8ccc(N9CCOCC9)nc78)c(C(F)F)n6)CC5)CC4)c3C2=O)C(=O)N1 (some centres unmarked) | < 50 nM |
| Cn1c(=N)n(C2CCC(=O)NC2=O)c2ccc(CCCOCCCN3CCC(n4cc(NC(=O)c5cnn6ccc(N7CCOCC7)nc56)c(C(F)F)n4)CC3)cc21 (centres unmarked) | > 1000 nM |
| O=C(Nc1cn([C@H]2CC[C@H](CNC[C@H]3CC[C@H](n4cc(NC(=O)c5cnn6ccc(N7CCOCC7)nc56)c(C(F)F)n4)CC3)CC2)nc1C(F)F)c1cnn2ccc(N3CCOCC3)nc12 | > 1000 nM |
| Cn1c(=O)n(C2CCC(=O)NC2=O)c2cccc(CN3C[C@H]4CC[C@@H](C3)N4CC[C@H]3CC[C@H](n4cc(NC(=O)c5cnn6ccc(N7C[C@H]8C[C@@H]7CO8)nc56)c(C(F)F)n4)CC3)c21 (some centres unmarked) | > 1000 nM |
| O=C1CCC(N2Cc3c(NCC4CCN(C[C@H]5CC[C@H](C6N=C(NC(=O)c7cnn8ccc(N9C[C@H]%10C[C@@H]9CO%10)nc78)C(C(F)F)=N6)CC5)CC4)cccc3C2=O)C(=O)N1 (some centres unmarked) | > 1000 nM |
| O=C1CCC(n2c3cccc(CCCN4CC5(CCN(C(=O)[C@H]6CC[C@H](n7cc(NC(=O)c8cnn9ccc(N%10C[C@H]%11C[C@@H]%10CO%11)nc89)c(C(F)F)n7)CC6)CC5)C4)c3c3cccnc32)C(=O)N1 (some centres unmarked) | > 1000 nM |
